assay: clinical; conditions: human, in vivo

# compound, Tmax, h
records = [
    ("N#Cc1ccc(O[C@H]2CC[C@H](NC(=O)c3ccc(N4CCC(CN5CCN(c6cc7c(cc6F)C(=O)N(C6CCC(=O)NC6=O)C7=O)CC5)CC4)nn3)CC2)cc1Cl (stereo partly shown)", 6),
]

----------
test: clinical; settings: human, in vivo
measuredParameter: Cmax (ng/mL)

# compound, measuredParameter, obsValue
data = [
    ("N#Cc1ccc(O[C@H]2CC[C@H](NC(=O)c3ccc(N4CCC(CN5CCN(c6cc7c(cc6F)C(=O)N(C6CCC(=O)NC6=O)C7=O)CC5)CC4)nn3)CC2)cc1Cl (stereo partly shown)", "Cmax", 451),
]

----------
test: clinical; settings: human, in vivo, Abiraterone AUC0-tau, mean

# compound, AUC (µg·h/mL)
rows = [
    ("C[C@]12CC[C@H](O)CC1=CC[C@@H]1[C@@H]2CC[C@]2(C)C(c3cccnc3)=CC[C@@H]12 [Abiraterone, reference compound]", 0.417),
]
